# assay_overview: MM1S myeloma cell viability, profiling panel, resazurin fluorescence, basal, 24 h, PK04 Diversity Set (AID 1174);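 also: MM1S multiple myeloma cell line; test concentration not given here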
# reported_conditions: higher = more signal, called active from +8 up or from −8 down
experimental_endpoint: z-score
Write the number on its own, no unit after it.

* CC(C)[C@@H](CO)NC(=O)[C@H]1[C@@H](c2ccccc2)N(c2ccccc2)O[C@@H]1C | 0.751

Ask: Supply recorded z-score for C=CCOC(=O)[C@@H]1[C@H]2C(=O)O[C@H](c3ccccc3)[C@H](c3ccccc3)N2[C@H](c2ccc(OCCOC(=O)[C@@H]3C[C@@H]4C(=O)N[C@@H](CCCCN(C)C)C(=O)N4[C@@H]3c3ccc(O)cc3)cc2)[C@@]12C(=O)Nc1ccc(I)cc12 here.
Result: -0.078

Ask: Supply recorded z-score for C=CC[C@@]1(C(N)=O)N=C(c2ccc(OCCCO)cc2)O[C@@H]1c1ccccc1CN=[N+]=[N-] here.
Result: 0.348

Ask: Supply recorded z-score for COc1ccc(C#Cc2ccc3c(c2)[C@]2(C(=O)N3)[C@H](c3ccccc3OCCO)N3[C@H](c4ccccc4)[C@H](c4ccccc4)OC(=O)[C@H]3[C@@H]2C(=O)O)cc1 here.
Result: -3.05

Ask: Supply recorded z-score for C=CCNC(=O)[C@H]1[C@@H]2C(=O)O[C@@H](c3ccccc3)[C@@H](c3ccccc3)N2[C@@H](c2ccc(O)cc2)[C@]12C(=O)N(C(=O)OCCOC)c1ccc(C#CCNC(N)=O)cc12 here.
Result: 0.244

Ask: Supply recorded z-score for CCOC(=O)[C@H]1C/C=C/C[C@H](C(=O)OCC)C(=O)O[C@H]2[C@@H](OC)O[C@H](CO)[C@@H](OC(=O)Nc3cccc(F)c3)[C@@H]2OC1=O here.
Result: -9.05

Ask: Supply recorded z-score for O=C1c2ccccc2[C@@]2(Cc3ccccc3N(CCN3CCOCC3)C2=O)[C@H](c2ccc(CO)cc2)N1Cc1ccccc1 here.
Result: 0.757

* * *

# tested_system: Epidermal growth factor receptor (Homo sapiens) (UniProt P00533)
# Sequence (P00533 whole entry, looked up): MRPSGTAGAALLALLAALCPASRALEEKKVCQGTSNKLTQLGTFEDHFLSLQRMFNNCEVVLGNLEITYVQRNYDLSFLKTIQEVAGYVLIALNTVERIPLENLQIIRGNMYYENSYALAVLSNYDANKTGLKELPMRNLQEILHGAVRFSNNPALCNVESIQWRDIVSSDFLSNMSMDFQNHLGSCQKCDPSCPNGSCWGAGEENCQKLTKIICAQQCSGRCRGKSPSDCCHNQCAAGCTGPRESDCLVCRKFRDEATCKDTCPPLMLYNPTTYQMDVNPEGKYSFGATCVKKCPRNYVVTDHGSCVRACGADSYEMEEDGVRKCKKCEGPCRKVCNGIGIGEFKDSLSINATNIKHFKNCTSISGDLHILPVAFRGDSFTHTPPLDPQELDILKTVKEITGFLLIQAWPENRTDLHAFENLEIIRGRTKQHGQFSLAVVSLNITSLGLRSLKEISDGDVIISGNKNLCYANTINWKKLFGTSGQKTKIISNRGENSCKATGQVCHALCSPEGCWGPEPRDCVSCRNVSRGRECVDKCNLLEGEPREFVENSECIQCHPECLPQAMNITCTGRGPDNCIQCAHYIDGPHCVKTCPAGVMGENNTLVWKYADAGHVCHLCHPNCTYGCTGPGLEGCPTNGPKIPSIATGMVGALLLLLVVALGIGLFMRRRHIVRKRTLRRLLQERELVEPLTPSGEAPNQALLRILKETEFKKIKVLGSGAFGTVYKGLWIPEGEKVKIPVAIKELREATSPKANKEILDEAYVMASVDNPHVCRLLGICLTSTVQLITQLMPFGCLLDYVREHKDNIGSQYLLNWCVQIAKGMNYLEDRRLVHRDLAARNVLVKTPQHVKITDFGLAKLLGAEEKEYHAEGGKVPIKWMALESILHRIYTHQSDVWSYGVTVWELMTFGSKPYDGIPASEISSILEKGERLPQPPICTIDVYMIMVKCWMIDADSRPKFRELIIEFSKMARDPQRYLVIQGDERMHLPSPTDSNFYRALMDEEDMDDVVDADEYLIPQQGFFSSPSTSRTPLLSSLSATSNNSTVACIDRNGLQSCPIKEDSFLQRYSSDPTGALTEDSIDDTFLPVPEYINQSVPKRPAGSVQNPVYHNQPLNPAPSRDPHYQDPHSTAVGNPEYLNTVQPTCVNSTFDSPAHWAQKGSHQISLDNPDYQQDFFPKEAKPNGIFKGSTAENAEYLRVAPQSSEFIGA
# assay_overview: EGFR binders on small-molecule microarrays, primary screen, biochemical, small-molecule microarray, 635 nm fluorescence (AID 1104);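 also: score merges 667 nm emission intensity with spot signal to noise over triplicate slides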
# reported_conditions: EGFR binding, higher = more signal
experimental_endpoint: composite z-score

Ask: Supply recorded composite z-score for O=C1C2C=CC(C(O)c3c(F)cccc3Cl)N(Nc3ccccc3)C2C(=O)N1c1ccccc1 (stereo not drawn) here.
Result: 0.271

Ask: Supply recorded composite z-score for C=CCOC(=O)[C@H]1[C@@H]2C(=O)O[C@@H](c3ccccc3)[C@@H](c3ccccc3)N2[C@@H](c2ccc(OCCOC(=O)[C@@H]3C[C@@H]4C(=O)N[C@@H](CCCC[N+](C)(C)C)C(=O)N4[C@@H]3c3ccc(O)cc3)cc2)[C@]12C(=O)Nc1ccccc12 here.
Result: 0.383

Ask: Supply recorded composite z-score for CN(C)C(=O)[C@]1(Cc2ccccc2CN=[N+]=[N-])N=C(c2ccc(OCCCO)cc2)O[C@@H]1c1ccccc1CN=[N+]=[N-] here.
Result: -0.0263

* * *

# assay_overview: adipocyte viability effects, profiling panel, cell-based, 3T3-L1 adipocytes, calcein-AM fluorescence, 48 h, basal (AID 1163); also: test concentration not given here
# reported_conditions: 3T3-L1 adipocytes viability, higher = more signal
Class definitions on z-score: low bracket (below -0.5), middle bracket (-0.5 to below 0.02), high bracket (0.02 or more)

- CN(C)C(=O)[C@]1(Cc2ccccc2CN=[N+]=[N-])N=C(c2ccc(OCCCO)cc2)O[C@@H]1c1ccccc1CN=[N+]=[N-]: high bracket

Ask: Into which bin does this molecule go? C=CCOC(=O)[C@H]1[C@@H]2C(=O)O[C@@H](c3ccccc3)[C@@H](c3ccccc3)N2[C@@H](c2ccc(OCCOC(=O)[C@@H]3C[C@@H]4C(=O)N[C@@H](CCCCN(C)C)C(=O)N4[C@@H]3c3ccc(O)cc3)cc2)[C@]12C(=O)Nc1ccc(I)cc12
Result: low bracket

Ask: Into which bin does this molecule go? COc1ccc([Si](C)(C)[C@H]2[C@H](CCO)O[C@@]3(C(=O)N(C)c4c(Br)cc(C)cc43)[C@@H]2C)cc1
Result: low bracket

Ask: Into which bin does this molecule go? COc1ccc(CCN2C(=O)[C@@]3(Cc4ccccc42)c2ccccc2C(=O)N(Cc2ccccc2C(F)(F)F)[C@H]3c2ccc(CO)cc2)cc1
Result: high bracket

Ask: Into which bin does this molecule go? C=CC[C@@]1(C(=O)N(C)C)N=C(c2ccc(OCCCO)cc2)O[C@@H]1c1ccccc1N=[N+]=[N-]
Result: middle bracket

Ask: Into which bin does this molecule go? C=CC[C@]1(C(=O)N2CCCCC2)N=C(c2ccc(OCCCO)cc2)O[C@H]1c1ccccc1
Result: high bracket

Ask: Into which bin does this molecule go? C=CCOC(=O)[C@@H]1[C@H]2C(=O)O[C@H](c3ccccc3)[C@H](c3ccccc3)N2[C@H](c2ccc(OCCOC(=O)[C@@H]3C[C@@H]4C(=O)N[C@@H](CCCCN(C)C)C(=O)N4[C@@H]3c3ccc(O)cc3)cc2)[C@@]12C(=O)Nc1ccc(I)cc12
Result: middle bracket

Ask: Into which bin does this molecule go? C=CCOC(=O)[C@H]1[C@@H]2C(=O)O[C@@H](c3ccccc3)[C@@H](c3ccccc3)N2[C@@H](c2ccc(OCCOC(=O)[C@H]3C[C@H]4C(=O)N[C@@H](CC(C)C)C(=O)N4[C@H]3c3ccc(O)cc3)cc2)[C@]12C(=O)Nc1ccc(I)cc12
Result: middle bracket

Ask: Into which bin does this molecule go? CN1C(=O)C2C=CC(C(O)Cc3ccccc3)N(Nc3ccccc3)C2C1=O (stereo not drawn)
Result: low bracket

Ask: Into which bin does this molecule go? O=C1c2ccccc2[C@@]2(Cc3ccccc3N(CC(F)(F)F)C2=O)[C@H](c2ccc(CO)cc2)N1Cc1ccccc1Cl
Result: high bracket

Ask: Into which bin does this molecule go? CC(=O)N1Cc2ccccc2C[C@@]2(COC(c3ccc(OCCCO)cc3)=N2)C1=O
Result: high bracket

Ask: Into which bin does this molecule go? CN1C(=O)C2C=CC(C(O)c3ccc(-c4ccccc4)s3)N(N(c3ccccc3)c3ccccc3)C2C1=O (stereo not drawn)
Result: low bracket

* * *

# Test system: Chordin-like protein 2 (CHRDL2)
# assay_overview: CHRDL2 small-molecule binders, primary screen, biochemical, small-molecule microarray, 635 nm fluorescence (AID 1126);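 also: printed compound slides probed with Chrdl2 protein at 4 µg/mL for 1 h at 4 C; score merges 667 nm emission intensity with signal to noise over three replicate slides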
# reported_conditions: small-molecule microarray binding, fluorescence 635 nm; higher = more signal
// Condition not met strictly below -0.1 in composite z-score; Condition met otherwise

Example entries and their recorded answers appear below.
• CN1C(=O)C2C=CC(C(O)c3ccc(I)cc3)N(N3CCCCC3)C2C1=O (stereo unspecified) = Condition not met
• COC(=O)c1c(CC[C@@H](CO)NC(=O)N2CCC[C@H]2Cn2cc(-c3ccccn3)nn2)oc(C(C)=O)c1C(=O)OC = Condition not met
• COc1ccc([Si](C)(C)[C@H]2[C@H](CC(=O)N3Cc4ccccc4C[C@H]3CO)O[C@@]3(C(=O)N(Cc4ccc(N5CCC5=O)cc4)c4ccccc43)[C@@H]2C)cc1 = Condition met

Ask: Can Cc1ccc(S[C@]2(C(=O)NCCN3CCOCC3)CC(=O)N(Cc3ccccc3)[C@@H]2c2ccc(CO)cc2I)cc1 be said to have composite z-score at or above -0.1?
Result: Condition not met

Ask: Can CCOC(=O)C[C@H]1[C@H](OC(=O)Cc2ccc3c(c2)OCO3)[C@@H](NC(=O)c2ccc(-c3ccccc3)cc2)c2cc(OCCCO)ccc2N1C(=O)c1ccc2ccccc2n1 be said to have composite z-score at or above -0.1?
Result: Condition met

Ask: Can COCCOC(=O)N1C(=O)[C@@]2(c3cc(C#CCNC(N)=O)ccc31)[C@H](C(=O)NC[C@H](O)c1ccccc1)[C@H]1C(=O)O[C@H](c3ccccc3)[C@H](c3ccccc3)N1[C@@H]2c1ccccc1OCCO be said to have composite z-score at or above -0.1?
Result: Condition met

* * *

# tested_system: Torsin-1A-interacting protein 2 (Homo sapiens)
# assay_overview: LULL1 binders on small-molecule microarray, primary screen, cell lysate, human LULL1 lysate, 635/667 nm fluorescence (AID 1092);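 also: probe is lysate of COS7 cells overexpressing human LULL1; score merges per-feature 667 nm fluorescence with signal-to-noise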
# reported_conditions: hLULL1 lysate binding, 635 nm fluorescence, higher = more signal
// condition not met strictly below 2 in composite z-score; condition met otherwise

* COc1ccc(C(=O)O[C@H]2CC[C@]3(C)C4=C(CCC3C2(C)C)[C@]2(C)CC[C@H]([C@H](C)CCCC(C)C)[C@@]2(C)CC4)cc1 (stereo partly drawn) | condition not met
* CCCC=C(CCC)[C@@H](NC(=O)Oc1ccc(F)cc1)c1ccc(C(=O)OC)cc1 | condition met
* CCOc1cc(C(O)C2C=CC3C(=O)N(c4ccccc4)C(=O)C3N2Nc2ccccc2)ccc1O (stereo not drawn) | condition met

Ask: Can COCCOC(=O)N1C(=O)[C@@]2(c3cc(C#Cc4ccc(OC)cc4)ccc31)[C@H](c1ccc(O)cc1)N1[C@H](c3ccccc3)[C@H](c3ccccc3)OC(=O)[C@H]1[C@@H]2C(=O)NC[C@H](O)c1ccccc1 be said to have composite z-score at or above 2?
Result: condition met

Ask: Can CN(C)CCCC[C@@H]1NC(=O)[C@H]2C[C@@H](C(=O)NCCCCCNC(=O)CS)[C@@H](c3cccc(OCCO)c3)N2C1=O be said to have composite z-score at or above 2?
Result: condition met

Ask: Can CCOC(=O)C[C@H]1[C@H](OC(=O)Cc2ccc3c(c2)OCO3)[C@@H](NC(=O)c2ccc(-c3ccccc3)cc2)c2cc(OCCCO)ccc2N1C(=O)Cc1ccc(OC)cc1 be said to have composite z-score at or above 2?
Result: condition not met

Ask: Can COCCCNC(=O)C1N=C(c2ccc(OCCCO)cc2)N(c2ccccc2)O1 (stereo not drawn) be said to have composite z-score at or above 2?
Result: condition not met

Ask: Can COc1ccc(COC2OC[C@]3(C)[C@H]4C5=C(CN3C(=O)OC(C)(C)C)[C@H](C)C(CO)C(CO)C5CC[C@@H]24)cc1 (stereo partly drawn) be said to have composite z-score at or above 2?
Result: condition met
